Values were extracted from patent US9187397B2.

assay.overview: Reactivity toward L-cysteine as nucleophile (absorbance 425 nm)
Type: physicochemical
experimental.context: 1 mM L-cysteine in sodium phosphate buffer, pH 7; read-out: t1/2 of absorbance quenching by L-cysteine
property: half-life at 20 μM (min)

> print(dat)
                      smiles.representation  quantitative.result
1  COc1cc(/C=C/C(=O)/C=C(O)/C=C/c2ccc(O)c(OC)c2)ccc1O                  7.2

====

Tested on: AP-1
assay.overview: AP-1 luciferase reporter cellular assay (293/AP1-luc, PMA-stimulated)
Format: cell-based, human
experimental.context: 15 μM; compared with curcumin
property: activity in the AP-1 cellular assay (screen)

> print(dat)
                                   molecule       result
1  COc1cc(/C=C/C(=O)c2ccc(O)c(OC)c2)ccc1O [45a]  most active
2     COc1cc(/C=C/C(=O)c2ccccc2)ccc1O [48a]  most active
3  O=C(O)c1ccc(C(=O)/C=C/c2ccccc2)cc1 [46ad]       Active
4                  CC(=O)C=Cc1ccccc1O [35q]       Active
